# Procedure summary: A CellTox Green Cytotoxicity Assay to monitor cytotoxicity in HepG2 cells - 32 hour (AID 1224883); further: nearly all actives have a fitted effect of over 50% in size
# Run parameters: CellTox Green fluorescence; series mostly up to 76.8 µM
Results filed as inconclusive are left out. Activity calls are given as the source filed them. The call rests on the fitted dose curve; in most records, active means well fitted activation curve with a large enough effect in the repeat runs; inconclusive means weak or mixed curves; inactive means flat fitted curve, though single readings scatter.
Measurement name: outcome

Reference set, count: 8
- C1=Cc2cccc3cccc1c23: inactive
- CCC(C)c1cc([N+](=O)[O-])cc([N+](=O)[O-])c1O (stereo not given): inactive
- N#CC(Br)Br: inactive
- Nc1ccncc1: inactive
- NNC(N)=S: inactive
- C=CCN(CC=C)C(=O)C(Cl)Cl: inactive
- c1nc[nH]n1: inactive
- CC(C)(OOC(C)(C)c1ccccc1)c1ccccc1: inactive

Ask: Which outcome value belongs to CCOC(=S)S ?
Reply: inactive

Ask: Now try CCCCN(CCCC)N=O .
Reply: inactive

Ask: Now try Nc1cccnc1 .
Reply: inactive

Ask: Now try CC(C)N(C(=O)SCC(Cl)=C(Cl)Cl)C(C)C .
Reply: inactive

Ask: Now try Cc1c(COC(=O)[C@@H]2[C@H](/C=C(\Cl)C(F)(F)F)C2(C)C)cccc1-c1ccccc1 .
Reply: inactive

Ask: Now try CC(C)=CC1C(C(=O)OCc2coc(Cc3ccccc3)c2)C1(C)C (stereo not given) .
Reply: inactive

Ask: Now try O=P(O)(O)CCCl .
Reply: inactive

* * *

# Measurement target: Nuclear receptor subfamily 1 group I member 3 (Homo sapiens) (UniProt Q14994)
# Sequence (Q14994 whole entry, looked up): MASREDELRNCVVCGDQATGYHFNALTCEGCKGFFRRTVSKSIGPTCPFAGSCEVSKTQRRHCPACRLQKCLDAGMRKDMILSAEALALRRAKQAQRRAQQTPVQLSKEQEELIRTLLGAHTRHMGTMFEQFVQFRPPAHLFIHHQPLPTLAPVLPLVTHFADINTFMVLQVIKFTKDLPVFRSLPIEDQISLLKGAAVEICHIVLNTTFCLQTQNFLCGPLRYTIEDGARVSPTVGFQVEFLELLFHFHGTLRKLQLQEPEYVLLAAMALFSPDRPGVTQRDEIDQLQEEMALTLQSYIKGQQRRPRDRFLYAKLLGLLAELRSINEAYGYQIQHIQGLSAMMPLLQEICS
# Procedure summary: qHTS assay to identify small molecule antagonists of the constitutive androstane receptor (CAR) signaling pathway (AID 1224838);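 further: HepG2 cells stably expressing hCAR with CYP2B6 luciferase reporter stimulated by CITCO; nearly all actives have a fitted effect of over 40% in size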
# Run parameters: HepG2-CYP2B6-hCAR luciferase, CITCO-stimulated, 24 h; series mostly up to 92.4 µM
Records with an inconclusive call do not appear. Activity calls are given as the source filed them. The call rests on the fitted dose curve; in most records, active means well fitted inhibition curve with a large enough effect in the repeat runs; inconclusive means weak or mixed curves, or effect the other way; inactive means no such curve, though single readings can be large or run the other way.
Hi! Could you answer with just one of these? Yes (active), No (inactive)

Solved entries:
- CCC(C)(c1ccc(O)cc1)c1ccc(O)cc1: No
- NCc1cccnc1: No

Ask: For this compound, state the assay outcome: Nc1ccncc1
Reply: No

Ask: Now try NNC(N)=S .
Reply: Yes

Ask: Now try c1cc(OCC2CO2)ccc1Cc1ccc(OCC2CO2)cc1 (stereo not drawn) .
Reply: No

* * *

# Procedure summary: qHTS assay to identify small molecule antagonists of the estrogen related receptor (ERR) signaling pathway from Tox21 library (AID 1224848); further: nearly all actives have a fitted effect of over 50% in size
# Run parameters: ERR reporter cell line, luciferase antagonist mode, 18 h; series mostly up to 92.4 µM
Inconclusive results are not listed. The source made the active and inactive calls. Calls come from the whole dose curve; as a rule, active = well fitted inhibition curve with a large enough effect in the repeat runs; inconclusive = weak or mixed curves; inactive = no such curve, though single readings can be large or run the other way.
Hi! Could you answer with just one of these? True = active, False = inactive

Ask: For this compound, state the assay outcome: CCCCC(CC)COC(=O)Cl (stereo unspecified)
Reply: False

Ask: Now try OCC(O)CO .
Reply: False

Ask: Now try Cc1ccc2c(c1N)C(=O)c1ccccc1C2=O .
Reply: False

Ask: Now try Brc1ccc(Oc2cc(Br)c(Br)cc2Br)c(Br)c1 .
Reply: False

Ask: Now try CC(C)c1ccc(CO)cc1 .
Reply: False

Ask: Now try CCOP(=S)(OCC)O/N=C(\C#N)c1ccccc1 .
Reply: False

* * *

# Procedure summary: qHTS assay for identifying genotoxic compounds that show differential cytotoxicity against isogenic chicken DT40 cell lines with known DNA damage response pathways - Rev3 mutant cell line (AID 743014); further: nearly all actives have a fitted effect of over 55% in size; further: potency means the concentration at half of the fitted maximal effect
# Run parameters: chicken DT40 Rev3-/- viability, CellTiter-Glo, 40 h; series mostly up to 68.4 µM
Inconclusive results are not listed. Activity calls are given as the source filed them. Calls come from the whole dose curve; as a rule, active = well fitted cell-killing curve with a large enough effect in the repeat runs; inconclusive = weak or mixed curves, or effect the other way; inactive = no such curve, though single readings can be large or run the other way.
Measurement name: Potency

Reference set, count: 10
- O=C(CCl)c1ccccc1: 54.5 µM (active)
- CCCCCCCCOC(=O)c1ccccc1C(=O)OCCCCCCCC: inactive
- c1nc[nH]n1: inactive
- CC(C)c1ccc(CO)cc1: inactive
- CC(C)NC(C)C: inactive
- c1ccc(NNc2ccccc2)cc1: 24.3 µM (active)
- CC(C)(c1cc(Cl)c(O)c(Cl)c1)c1cc(Cl)c(O)c(Cl)c1: inactive
- COP(=O)(OC)OC: inactive
- CCCCCCOC(=O)c1ccccc1C(=O)OCCCCCC: inactive
- CCN(CC)C(=O)/C(Cl)=C(\C)OP(=O)(OC)OC: inactive

Ask: Which Potency value belongs to C=C(C)C(=O)OCC1CO1 (stereo not given) ?
Reply: inactive

Ask: Now try O=C(O)C(F)(F)C(F)(F)C(F)(F)C(F)(F)C(F)(F)C(F)(F)C(F)(F)F .
Reply: inactive

Ask: Now try Cc1c(COC(=O)[C@@H]2[C@H](/C=C(\Cl)C(F)(F)F)C2(C)C)cccc1-c1ccccc1 .
Reply: inactive

Ask: Now try S=C1NCCN1 .
Reply: inactive

Ask: Now try C=CCN(CC=C)C(=O)C(Cl)Cl .
Reply: inactive
